# System: HCC 2998
# assay.procedure: NCI tumour cell line growth inhibition, 48 h
Active and inactive are the calls of the source. No stated cut-off is given here; in the data, active = GI50 up to about 1.1 µM and inactive = higher.
value.kind: GI50

>>> experimental_result("O=C(OCCOCCOC(=O)c1c[nH]cc1-c1ccccc1)c1c[nH]cc1-c1ccccc1")
"21.9 µM (inactive)"
>>> experimental_result("C/C(=C\\c1ccccc1)C(O)S(=O)(=O)O (stereo unspecified)")
"> 100 µM (inactive)"
>>> experimental_result("c1ccc2c(CN3CCC(C4CCN(Cc5cccc6ccccc56)CC4)CC3)cccc2c1")
"1.09 µM (active)"
>>> experimental_result("O=C(/C=C/c1ccccc1)/C=C/c1ccccc1")
"37.8 µM (inactive)"
>>> experimental_result("CC(=O)N1c2ccccc2N(C(C)=O)C1c1ccc(C2N(C(C)=O)c3ccccc3N2C(C)=O)[nH]1")
"> 100 µM (inactive)"
>>> experimental_result("C1C[N+]23CCC[N+]2(C1)CCC3 (stereo unspecified)")
"> 100 µM (inactive)"
